MFI at 100 nM: recorded values
Molecular target: T1, TIGIT (UniProt Q495A1 22-244)
T1 construct: whole, on cells
T1 sequence (looked up): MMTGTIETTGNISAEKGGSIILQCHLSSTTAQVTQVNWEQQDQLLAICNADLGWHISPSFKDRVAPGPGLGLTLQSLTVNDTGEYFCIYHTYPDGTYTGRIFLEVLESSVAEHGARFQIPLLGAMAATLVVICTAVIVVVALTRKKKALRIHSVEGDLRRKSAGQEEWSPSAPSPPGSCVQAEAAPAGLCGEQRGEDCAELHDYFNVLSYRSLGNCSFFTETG
Test: flow cytometry on cells expressing TIGIT, Fc fusion at 100 nM
Write the answer as a number in MFI, unit excluded.

# Binder, Observed value
measured = [
    ("CD155 S42V/S52E variant IgV-Fc fusion (Fc fusion, not shown: a dimerising Fc or GST) WPPPGTGDVVVQAPTQVPGFLGDSVTLPCYLQVPNMEVTHVVQLTWARHGEEGSMAVFHQTQGPSYSESKRLEFVAARLGAELRNASLRMFGLRVEDEGNYTCLFVTFPQGSRSVDIWLRVL", 2060),
]

The recorded MFI at 100 nM for CD155 S42N variant IgV-Fc fusion (Fc fusion, not shown: a dimerising Fc or GST) WPPPGTGDVVVQAPTQVPGFLGDSVTLPCYLQVPNMEVTHVNQLTWARHGESGSMAVFHQTQGPSYSESKRLEFVAARLGAELRNASLRMFGLRVEDEGNYTCLFVTFPQGSRSVDIWLRVL is 1820

The recorded MFI at 100 nM for CD155 IgV Fc (Fc fusion, not shown: a dimerising Fc or GST) WPPPGTGDVVVQAPTQVPGFLGDSVTLPCYLQVPNMEVTHVSQLTWARHGESGSMAVFHQTQGPSYSESKRLEFVAARLGAELRNASLRMFGLRVEDEGNYTCLFVTFPQGSRSVDIWLRVL is 4690

The recorded MFI at 100 nM for CD155 S42G/S52Q/L104E/G111R variant IgV-Fc fusion (Fc fusion, not shown: a dimerising Fc or GST) WPPPGTGDVVVQAPTQVPGFLGDSVTLPCYLQVPNMEVTHVGQLTWARHGEQGSMAVFHQTQGPSYSESKRLEFVAARLGAELRNASLRMFGLRVEDEGNYTCEFVTFPQRSRSVDIWLRVL is 2010
